The reported measurements were obtained from ChEMBL document CHEMBL1629621.

test: Stability of the compound at 136 uM after 4 hrs in presence of […] V8 protease; type: ADME
Quantity Kind: Stability

CC[C@H](C)[C@H](NC(=O)[C@H](CCCNC(=N)N)NC(=O)[C@H](CCC(N)=O)NC(=O)[C@@H](NC(=O)[C@@H](NC(=O)[C@H](CCCNC(=N)N)NC(=O)[C@H](CCCCN)NC(=O)[C@H](Cc1ccccc1)NC(=O)[C@@H](N)CCC(=O)O)[C@@H](C)CC)C(C)C)C(=O)N[C@@H](CCCCN)C(=O)N[C@@H](CC(=O)O)C(=O)N[C@@H](Cc1ccccc1)C(=O)N[C@@H](CC(C)C)C(=O)N[C@@H](CCCNC(=N)N)C(=O)N[C@@H](CC(N)=O)C(=O)N[C@@H](CC(C)C)C(=O)N[C@H](C(=O)O)C(C)C = Stable
CC[C@@H](C)[C@@H](NC(=O)[C@H](CCCNC(=N)N)NC(=O)[C@H](CCC(N)=O)NC(=O)[C@@H](NC(=O)[C@H](NC(=O)[C@H](CCCNC(=N)N)NC(=O)[C@H](CCCCN)NC(=O)[C@@H](Cc1ccccc1)NC(=O)[C@H](CCC(=O)O)NC(C)=O)[C@H](C)CC)C(C)C)C(=O)N[C@@H](CCCCN)C(=O)N[C@@H](CC(=O)O)C(=O)N[C@H](Cc1ccccc1)C(=O)N[C@@H](CC(C)C)C(=O)N[C@@H](CCCNC(=N)N)C(=O)N[C@@H](CC(N)=O)C(=O)N[C@@H](CC(C)C)C(=O)N[C@H](C(N)=O)C(C)C = Stable
CC[C@@H](C)[C@@H](NC(=O)[C@H](CCCNC(=N)N)NC(=O)[C@H](CCC(N)=O)NC(=O)[C@@H](NC(=O)[C@H](NC(=O)[C@H](CCCNC(=N)N)NC(=O)[C@H](CCCCN)NC(=O)[C@@H](Cc1ccccc1)NC(=O)[C@@H](N)CCC(=O)O)[C@H](C)CC)C(C)C)C(=O)N[C@@H](CCCCN)C(=O)N[C@@H](CC(=O)O)C(=O)N[C@H](Cc1ccccc1)C(=O)N[C@@H](CC(C)C)C(=O)N[C@@H](CCCNC(=N)N)C(=O)N[C@@H](CC(N)=O)C(=O)N[C@@H](CC(C)C)C(=O)N[C@H](C(=O)O)C(C)C = Stable
